Reference source: ChEMBL document CHEMBL1201862

Listing of entries alongside the reported GI50.
Tested on: SF-268
Experiment: NCI tumour cell line growth inhibition, 48 h
Calls of active or inactive are those of the source. Rule as the data show it: active = GI50 up to about 1.1 µM and inactive = higher.

>>> readout_value("Oc1cc(O)cc(/C=C/c2ccc(O)c(O)c2)c1 [PICEATANNOL]")
"8.59 µM (inactive)"
>>> readout_value("O=C(O)c1ccc(C2=Cc3cc(Cl)ccc3OC2)cc1")
"> 100 µM (inactive)"
>>> readout_value("N=C(N)SCc1cc(Cl)cc(Cl)c1O")
"21.8 µM (inactive)"

GET /value?item= CN(C)c1nc2oc(-c3ccccc3)c(-c3ccccc3)c2c2nncn12 &field=GI50 returns > 100 µM (inactive)

GET /value?item= CC1(C)OC(=O)C(C#N)=C1C[n+]1ccccc1 &field=GI50 returns > 10 µM (inactive)

GET /value?item= COC1=C2CC(C)CC(OC)[C@@H](OC(=O)CCN)[C@H](C)/C=C(\C)C(OC(N)=O)C(OC)/C=C\C=C(/C)C(=O)NC(=CC1=O)C2=O (stereo partly drawn) &field=GI50 returns 9.06 µM (inactive)

GET /value?item= Cc1c(C(=O)CC(=O)C(=O)NC2C3CC4CC(C3)CC2C4)[n+]([O-])c2ccccc2[n+]1[O-] (stereo not drawn) &field=GI50 returns > 100 µM (inactive)

GET /value?item= Nc1ccccc1CC(O)C(=O)O (stereo not drawn) &field=GI50 returns > 100 µM (inactive)

GET /value?item= c1ccc(OCc2nnc3n2N=C(c2ccccc2)CS3)cc1 &field=GI50 returns > 100 µM (inactive)

GET /value?item= O=[N+]([O-])c1cccc(C2N3CCCCC3[C@@H]3c4[nH]c5ccccc5c4CCN23)c1 (stereo partly drawn) &field=GI50 returns 12 µM (inactive)

GET /value?item= COc1ccc(NC(=O)Oc2cc(C)c3ccc(=O)cc-3o2)c(OC)c1.COc1ccc(NC(=O)Oc2ccc3c(C)cc(=O)oc3c2)c(OC)c1 &field=GI50 returns > 100 µM (inactive)

GET /value?item= CCCCCCCCCCCCCCCCOCC(Cl)COP(=O)(O)OP(=O)(O)OCC1OC(n2cc(C)c(=O)[nH]c2=O)CC1O (stereo not drawn) &field=GI50 returns 69.2 µM (inactive)
